System: human CD4+CD45RO+ T cells
procedure summary: Modulation of T cell differentiation by RAR agonists and antagonists
Assay type: cell-based
condition parameters: 8 days culture, vs DMSO
assay metric: expression of CD62L

Solved cases (5 shown):
CN1c2cc3c(cc2N=C(c2ccc(C(=O)O)cc2)c2ccc4ccccc4c21)C(C)(C)CCC3(C)C :: increased
CCCCCCCCc1ccc(-c2ccc(C(=O)O)cc2)cc1 :: decreased
CN1c2cc3c(cc2N=C(c2ccc(C(=O)O)cc2)c2ccccc21)C(C)(C)CCC3(C)C :: increased
CC1(C)CC=C(c2cnc3ccccc3c2)c2cc(C(=O)Nc3ccc(C(=O)O)cc3)ccc21 :: increased
CC1=C(/C=C/C(C)=C/C=C/C(C)=C/C(=O)O)C(C)(C)CCC1 [retinoic acid, all-trans retinoic acid] :: decreased

Which expression of CD62L value belongs to "CC1(C)CCC(C)(C)c2cc(C(=O)Nc3ccc(C(=O)O)cc3)ccc21" ?
decreased

Same question for "CC1(C)CCC(C)(C)c2cc(C3(c4ccc5cc(C(=O)O)ccc5c4)SCCS3)ccc21" please.
increased

Same question for "O=C(O)c1ccc2cc(-c3ccc(O)c(C45CC6CC(CC(C6)C4)C5)c3)ccc2c1" please.
decreased
